Provenance of the data: patent US9944647B2

Assay system UniProt:O60341; read-out recorded as pIC50.
pIC50: −log10 of the molar value.

Example entries and their recorded answers appear below.
query_smiles	pIC50
Cc1ncc(-c2c(-c3ccc(C#N)cc3)nc(N3CCC(N(C)C)CC3)n3ccnc23)cc1F	≥ 7.30
Cc1cc(-c2c(-c3ccc(C#N)cc3)nc(OC[C@@H]3CCCN(C)C3)n3ccnc23)cc(F)c1CO	≥ 7.30
COc1ncc(-c2c(-c3ccc(C#N)cc3)nc(N3CCC(N(C)C)CC3)n3ccnc23)cc1C#N	≥ 7.30
CC(C)c1ccc(-c2c(-c3ccc(C#N)cc3)nc(OC[C@@H]3CCCN(C)C3)n3ccnc23)cn1	6.30 to 7.30

Could you now consider this next compound?
q: Record request: pIC50 value, item Cc1ncc(-c2c(-c3ccc(C#N)cc3)nc(OC[C@@H]3CCCN(C)C3)n3ccnc23)cc1F
a: 6.30 to 7.30
